Cited source: patent US20070219139A1

Molecular target: T1, formyl peptide receptor (UniProt P21462 1-350, limits assumed)
T1 sequence (looked up): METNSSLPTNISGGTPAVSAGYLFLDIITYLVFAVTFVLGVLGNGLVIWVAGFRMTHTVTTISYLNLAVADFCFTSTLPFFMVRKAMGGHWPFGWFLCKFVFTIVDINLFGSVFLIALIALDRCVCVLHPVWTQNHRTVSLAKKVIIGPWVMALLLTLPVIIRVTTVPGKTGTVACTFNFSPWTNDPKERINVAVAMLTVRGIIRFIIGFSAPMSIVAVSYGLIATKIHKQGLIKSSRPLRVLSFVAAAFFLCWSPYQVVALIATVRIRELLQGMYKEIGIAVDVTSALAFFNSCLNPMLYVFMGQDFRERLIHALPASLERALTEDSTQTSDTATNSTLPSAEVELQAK
Assay: cell-based or functional assay
Where no end group is shown, it is not given here. [ ]: non-standard residue; d: D form.
So I've got a bunch of binders here, and I need their EC50 of intracellular calcium increase in FPR-expressing RBL-2H3 cells (fura-2) values.
One number for each entry, in nM.

[
  {
    "BINDER": "WDYMV[dM]-NH2 (N-terminus assumed; SMILES CSCC[C@H](NC(=O)[C@H](Cc1ccc(O)cc1)NC(=O)[C@H](CC(=O)O)NC(=O)[C@@H](N)Cc1c[nH]c2ccccc12)C(=O)N[C@H](C(=O)N[C@H](CCSC)C(N)=O)C(C)C) [Trp-Asp-Tyr-Met-Val-D-Met-NH2]",
    "READOUT UNIT": "nM",
    "RESULT VALUE": 98.9
  }
]

Now turn to the next binder.
Qu. Bench note: what EC50 of intracellular calcium increase in FPR-expressing RBL-2H3 cells (fura-2) did WKWMV[dM]-NH2 (N-terminus assumed; SMILES CSCC[C@H](NC(=O)[C@H](Cc1c[nH]c2ccccc12)NC(=O)[C@H](CCCCN)NC(=O)[C@@H](N)Cc1c[nH]c2ccccc12)C(=O)N[C@H](C(=O)N[C@H](CCSC)C(N)=O)C(C)C) [Trp-Lys-Trp-Met-Val-D-Met-NH2] show?
Ans. 18.8
